The measured values listed here are drawn from ChEMBL document CHEMBL4316610.

TEST: Selectivity index, ratio of CC50 for mouse J774 cells to IC50 for Leishmania guyanensis 141/93 promastigotes
Assay type: toxicity
MEASUREMENT CONDITIONS: read-out: Ratio CC50/IC50
Field: label. Allowed values: fulfilled (selectivity ratio < 2) or not fulfilled (selectivity ratio >= 2).

Reference set, count: 5
In [3]: df
Out[3]:
                                   compound  class_assignment
0  COC(=O)[C@]1(C)CCC[C@]2(C)c3cc(OC(C)=O)c(C(C)C)cc3CC[C@@H]12     not fulfilled
1  CC(C)c1cc2c(cc1O)[C@@]1(C)CCC[C@@](C)(CO)[C@@H]1CC2=O         fulfilled
2  CC(C)c1cc2c(cc1O)[C@@]1(C)CCC[C@@](C)(CO)[C@@H]1CC2 [18-HYDROXYFERRUGINOL]         fulfilled
3  CCCCCCCCCCCCCCCCOP(=O)([O-])OCC[N+](C)(C)C [MILTEFOSINE]     not fulfilled
4  COC(=O)[C@]1(C)CCC[C@]2(C)c3cc(OC(C)=O)c(C(C)C)cc3C(=O)C[C@@H]12     not fulfilled

Decide: selectivity ratio of "COC(=O)[C@]1(C)CCC[C@]2(C)c3cc(C(C)=O)c(C(C)C)cc3CC[C@@H]12" strictly below 2?
not fulfilled

Decide: selectivity ratio of "COC(=O)[C@]1(C)CCC[C@]2(C)c3cc(O)c(C(C)C)cc3CC[C@@H]12" strictly below 2?
not fulfilled

Decide: selectivity ratio of "CC(C)c1cc2c(cc1O)[C@@]1(C)CCC[C@@](C)(C(=O)O)[C@@H]1CC2" strictly below 2?
fulfilled

###

TEST: Selectivity index, ratio of CC50 for mouse J774 cells to IC50 for Leishmania infantum MCAN/ES/96/BCN150 promastigotes
Format: toxicity
MEASUREMENT CONDITIONS: read-out: Ratio CC50/IC50
Given measured selectivity ratio, output Criterion met if it is greater than or equal to 20 and Criterion not met if not.

                                   compound   class_assignment
0  COC(=O)[C@]1(C)CCC[C@]2(C)c3cc(O)c(C(C)C)cc3CC[C@@H]12  Criterion not met

Check the entry "CC(C)c1cc2c(cc1O)[C@@]1(C)CCC[C@@](C)(CO)[C@@H]1CC2=O" : does selectivity ratio equal or exceed 20?
Criterion not met

Check the entry "CC(C)c1cc2c(cc1O)[C@@]1(C)CCC[C@@](C)(C(=O)O)[C@@H]1CC2" : does selectivity ratio equal or exceed 20?
Criterion not met

###

Assignment: determine reported GI50 for the given molecules.
Tested on: SW1573
TEST: Antiproliferative activity against human SW1573 cells after 48 hrs by SRB assay
Assay type: functional
MEASUREMENT CONDITIONS: SW1573, 48 h
One number for each entry, in µM.

Sample answers from the record:
MOLECULE	UNIT ABBREVIATION	EXPERIMENTAL VALUE
COC(=O)[C@]1(C)CCC[C@]2(C)c3cc(C(C)=O)c(C(C)C)cc3CC[C@@H]12	µM	11
COC(=O)[C@]1(C)CCC[C@]2(C)c3cc(OC(C)=O)c(C(C)C)cc3CC[C@@H]12	µM	12
COC(=O)[C@]1(C)CCC[C@]2(C)c3cc(O)c(C(C)C)cc3CC[C@@H]12	µM	11

Measured GI50 of COc1cc([C@@H]2c3cc4c(cc3[C@@H](O[C@@H]3O[C@@H]5CO[C@@H](C)O[C@H]5[C@H](O)[C@H]3O)[C@H]3COC(=O)[C@H]23)OCO4)cc(OC)c1O [ETOPOSIDE] : 15
